Entries annotated with measured IC50
- TARGET OF ASSAY: Avi-KRAS G12V (1-169) GppNHp/RAF1 RBD-3xFLAG (52-151) (Homo sapiens, UniProt P01116, G12V)
- Construct: Avi-KRAS G12V (1-169)
- Sequence (P01116 1-169 isoform P01116-2 G12V): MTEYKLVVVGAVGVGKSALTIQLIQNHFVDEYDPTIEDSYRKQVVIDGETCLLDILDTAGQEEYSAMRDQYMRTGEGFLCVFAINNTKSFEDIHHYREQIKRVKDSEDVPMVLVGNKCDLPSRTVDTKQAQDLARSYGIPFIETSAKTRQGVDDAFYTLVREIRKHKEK
- ASSAY PROCEDURE: Raf1-KRAS G12V-GppNHP disruption HTRF assay (Biological Example 1)
- Format: binding
- CONDITIONS: KRAS G12V-GppNHp/RAF1 RBD HTRF

Look over these answered cases.
CC(=O)N1C[C@@H]2CCCN(c3nc(OC[C@@]45CCCN4C[C@H](F)C5)nc4c(F)c(-c5ccc(F)c6sc(N)c(C#N)c56)c(C(F)(F)F)cc34)[C@@H]2C1    1000 to 10000 nM
CC(=O)N1C[C@@H](N(C)c2nc(OC[C@@]34CCCN3C[C@H](F)C4)nc3c(F)c(-c4ccc(F)c5sc(N)c(C#N)c45)c(C(F)(F)F)cc23)C[C@@H]1CF    100 to 1000 nM
N#Cc1c(N)sc2c(F)ccc(-c3c(C(F)(F)F)cc4c(N5CC6CC(C5)O6)nc(OC[C@@]56CCCN5C[C@]5(CC5(F)F)C6)nc4c3F)c12    100 to 1000 nM
N#Cc1c(N)sc2c(F)ccc(-c3c(C(F)(F)F)cc4c(N5CCN6C(=O)OCC6C5)nc(OCC56CCCN5CC(F)C6)nc4c3F)c12 (centres unmarked) [Compound 431]    1000 to 10000 nM

Exam item: Hello, I am looking for reported IC50 with Avi-KRAS G12V (1-169) GppNHp/RAF1 RBD-3xFLAG (52-151) (Homo sapiens, UniProt P01116, G12V) for CCN(c1nc(OC[C@@]23CCCN2C[C@H](F)C3)nc2c(F)c(-c3ccc(F)c4sc(N)c(C#N)c34)c(C(F)(F)F)cc12)[C@H]1CCN(C(=O)c2ccno2)C1 (atropisomer, axis not shown) . Could you help?
Marked response: < 100 nM

Exam item: Please state recorded IC50 (tested on Avi-KRAS G12V (1-169) GppNHp/RAF1 RBD-3xFLAG (52-151) (Homo sapiens, UniProt P01116, G12V)) of `C[C@H]1CS(=O)(=O)CCN1c1nc(OC[C@@]23CCCN2C[C@H](F)C3)nc2c(F)c(-c3ccc(F)c4sc(N)c(C#N)c34)c(C(F)(F)F)cc12`
Marked response: 1000 to 10000 nM
